Data origin: patent US20200147235A1

Recorded koff values for a group of binders are listed next.
Molecular target: T1, Human CD98 ECD with C-terminal His-tag (human, UniProt P08195 105-529)
T1 construct: also called huCD98 ECD; recombinant human CD98 extracellular domain
T1 sequence: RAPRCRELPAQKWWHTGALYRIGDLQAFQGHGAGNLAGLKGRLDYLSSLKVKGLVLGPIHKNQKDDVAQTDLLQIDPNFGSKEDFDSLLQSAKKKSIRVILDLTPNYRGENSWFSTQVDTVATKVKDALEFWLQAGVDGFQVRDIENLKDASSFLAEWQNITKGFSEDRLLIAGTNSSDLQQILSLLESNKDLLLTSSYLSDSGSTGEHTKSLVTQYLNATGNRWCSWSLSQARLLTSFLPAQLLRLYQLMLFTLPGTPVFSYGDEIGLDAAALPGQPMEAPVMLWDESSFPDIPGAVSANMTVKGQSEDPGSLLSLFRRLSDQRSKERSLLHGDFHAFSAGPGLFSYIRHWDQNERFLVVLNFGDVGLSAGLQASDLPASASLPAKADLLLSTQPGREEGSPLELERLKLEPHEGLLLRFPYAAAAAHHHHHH
Assay: SPR Biacore, anti-Fc capture of mAb, CD98 ECD analyte
Enter your answer as a number in s⁻¹; do not include the unit.

For orientation, consider the following solved cases.
Anti-CD98 rat hybridoma antibody Ab9 (antibody, V domains shown) VH: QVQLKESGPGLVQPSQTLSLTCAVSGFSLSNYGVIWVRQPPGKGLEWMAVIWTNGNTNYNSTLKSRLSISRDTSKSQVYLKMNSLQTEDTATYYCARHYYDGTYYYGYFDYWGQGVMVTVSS VL: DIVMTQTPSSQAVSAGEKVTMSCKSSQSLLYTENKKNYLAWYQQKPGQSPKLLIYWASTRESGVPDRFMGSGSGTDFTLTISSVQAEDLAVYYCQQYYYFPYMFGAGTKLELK	0.00015
Anti-CD98 rat hybridoma antibody Ab10 (antibody, V domains shown) VH: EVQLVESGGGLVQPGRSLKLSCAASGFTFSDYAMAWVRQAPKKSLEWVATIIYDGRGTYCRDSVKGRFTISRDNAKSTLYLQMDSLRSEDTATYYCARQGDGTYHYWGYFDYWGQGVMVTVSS VL: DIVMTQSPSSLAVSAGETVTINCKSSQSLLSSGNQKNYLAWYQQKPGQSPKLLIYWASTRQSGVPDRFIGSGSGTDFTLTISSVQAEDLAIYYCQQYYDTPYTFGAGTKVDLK	0.00024

# evaluate next
QUERY: Can you look up the measured koff of Anti-CD98 rat hybridoma antibody Ab15 (antibody, V domains shown) VH: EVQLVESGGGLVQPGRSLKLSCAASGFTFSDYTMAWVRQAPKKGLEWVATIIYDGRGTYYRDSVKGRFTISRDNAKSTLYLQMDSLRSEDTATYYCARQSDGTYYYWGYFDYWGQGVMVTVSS VL: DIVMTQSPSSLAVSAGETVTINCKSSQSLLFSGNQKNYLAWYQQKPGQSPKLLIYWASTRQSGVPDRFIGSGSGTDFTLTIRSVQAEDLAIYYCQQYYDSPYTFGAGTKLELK for me?
RESULT: 5.3e-05
